Form field: % control, ErbB2 (DiscoverX) (one value per entry).
- ASSAYED TARGET: ErbB2 (Homo sapiens, UniProt P04626)
- Construct: purchased DiscoverX (KINOMEscan service); host or cells: E. coli BL21-derived host (T7 phage) or HEK-293
- Sequence (P04626 23-1255): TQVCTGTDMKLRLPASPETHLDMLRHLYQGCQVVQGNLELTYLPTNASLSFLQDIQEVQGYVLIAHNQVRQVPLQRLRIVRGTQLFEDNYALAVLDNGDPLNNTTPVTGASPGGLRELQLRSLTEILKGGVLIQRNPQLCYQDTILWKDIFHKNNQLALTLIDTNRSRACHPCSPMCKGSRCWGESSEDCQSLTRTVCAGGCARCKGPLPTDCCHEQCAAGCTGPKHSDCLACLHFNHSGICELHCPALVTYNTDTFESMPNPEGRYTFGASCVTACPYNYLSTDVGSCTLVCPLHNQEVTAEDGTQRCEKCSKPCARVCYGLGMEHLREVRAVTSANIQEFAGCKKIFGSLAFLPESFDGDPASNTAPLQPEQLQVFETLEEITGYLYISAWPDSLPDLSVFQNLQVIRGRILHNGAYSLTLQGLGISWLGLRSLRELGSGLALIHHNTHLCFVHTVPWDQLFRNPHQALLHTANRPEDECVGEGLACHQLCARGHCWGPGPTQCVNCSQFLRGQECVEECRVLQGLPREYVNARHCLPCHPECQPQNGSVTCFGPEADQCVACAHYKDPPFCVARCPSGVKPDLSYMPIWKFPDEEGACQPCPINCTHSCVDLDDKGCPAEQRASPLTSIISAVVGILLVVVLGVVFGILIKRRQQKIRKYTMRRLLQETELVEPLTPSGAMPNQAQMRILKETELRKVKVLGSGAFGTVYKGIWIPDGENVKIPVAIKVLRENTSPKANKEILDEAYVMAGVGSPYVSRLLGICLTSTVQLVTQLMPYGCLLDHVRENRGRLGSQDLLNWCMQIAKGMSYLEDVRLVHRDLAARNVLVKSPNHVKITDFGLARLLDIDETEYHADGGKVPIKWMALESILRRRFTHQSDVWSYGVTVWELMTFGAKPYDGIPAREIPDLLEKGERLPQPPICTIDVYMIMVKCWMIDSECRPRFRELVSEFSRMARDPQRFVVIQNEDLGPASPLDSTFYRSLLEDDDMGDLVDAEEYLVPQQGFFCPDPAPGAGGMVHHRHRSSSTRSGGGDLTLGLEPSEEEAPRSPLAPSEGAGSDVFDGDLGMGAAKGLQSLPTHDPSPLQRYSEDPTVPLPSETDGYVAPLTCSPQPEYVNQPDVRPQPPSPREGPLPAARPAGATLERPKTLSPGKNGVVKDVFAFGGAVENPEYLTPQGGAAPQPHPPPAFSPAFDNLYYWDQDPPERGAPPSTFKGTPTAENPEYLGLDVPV
- RUN DESCRIPTION: DiscoverX KINOMEscan competition binding assay
- PROTOCOL CONDITIONS: compound 10 µM; lower values = higher affinity; below 35% = significant binding
Express the result in % control but write the number alone.

Example compounds with recorded % control, ErbB2 (DiscoverX):
{"COMPOUND": "O=C(Oc1ccc2c3c(c(=O)oc2c1)CCC3)c1cccc(Cl)c1 [DS76514]", "ASSAYED TARGET": "ErbB2 (Homo sapiens, UniProt P04626)", "REPORTED RESULT": 96}
{"COMPOUND": "Cc1ccc(-n2cnnn2)cc1NC(=O)NCC1CC1 [DS44738]", "ASSAYED TARGET": "ErbB2 (Homo sapiens, UniProt P04626)", "REPORTED RESULT": 91}
{"COMPOUND": "COCCCNC(=O)c1nc2c3c4c(sc3ncn2n1)COC(C)(C)C4 [DS11689]", "ASSAYED TARGET": "ErbB2 (Homo sapiens, UniProt P04626)", "REPORTED RESULT": 99}
{"COMPOUND": "CC(=O)c1cc(CC(=O)N(C)C[C@H]2CCCCO2)cs1 [DS84326]", "ASSAYED TARGET": "ErbB2 (Homo sapiens, UniProt P04626)", "REPORTED RESULT": 97}
{"COMPOUND": "CC(C)n1ccc(=O)nc1SC1CCN(c2ccccc2F)C1=O (stereo not shown) [DS99367]", "ASSAYED TARGET": "ErbB2 (Homo sapiens, UniProt P04626)", "REPORTED RESULT": 100}

Req: Answer with the recorded % control, ErbB2 (DiscoverX) for the compound listed here: Cc1cccc(NC(=O)N[C@H](C)[C@H](C)N2CCOCC2)n1 [K001MM007]
Resp: 94

Req: Note down % control, ErbB2 (DiscoverX) recorded for COc1ccc(-c2nn(C(C)=O)c3c2C(=O)CC(C)(C)C3)cc1 [DS18339]
Resp: 100
